- System: hsa-mir-191 loop
- Experimental protocol: normalised indicator fluorescence (fraction of RNA + indicator signal without compound); higher = less displacement of indicator (weaker competition)
- Applied conditions: compound concentration: 5 uM; 30 min; indicator: TO-PRO-1 0.1 uM; RNA concentration: 0.1 uM
Exercise: for every item that follows, state its recorded normalised indicator fluorescence.

Look over these answered cases.
- Compound: "Oc1ccc(-c2nc(-c3ccc(F)cc3)c(-c3ccncc3)[nH]2)cc1"
  normalised indicator fluorescence: 1.1
- Compound: "CC1=NN(c2ccccc2)C(=O)C1"
  normalised indicator fluorescence: 1.06
- Compound: "C[C@@H]1O[C@@H](Oc2c(-c3cc(O)c(O)c(O)c3)oc3cc(O)cc(O)c3c2=O)[C@H](O)[C@H](O)[C@H]1O"
  normalised indicator fluorescence: 0.952

Respectfully, I request normalised indicator fluorescence for each entry included below.
1. CCc1cc(C(N)=S)ccn1 [Ethinamide]
2. CNc1ccc([N+](=O)[O-])c(Nc2ccc3[nH]ncc3c2)n1
3. CC(=O)O[C@H]1C[C@@]2(C)[C@@H](C[C@@H](O)[C@H]3[C@@]4(C)CC[C@@H](O)[C@@H](C)[C@@H]4CC[C@@]32C)/C1=C(\CCC=C(C)C)C(=O)O [Fusidine]
4. N=C(NCCCCCCNC(=N)NC(=N)Nc1ccc(Cl)cc1)NC(=N)Nc1ccc(Cl)cc1
5. COc1ccc(C(=C2C(=O)Nc3ccccc32)c2ccc(OC)cc2)cc1
6. CC(C)c1cc(-c2n[nH]c(=O)n2-c2ccc3c(ccn3C)c2)c(O)cc1O

1: 1.07; 2: 0.903; 3: 0.992; 4: 0.988; 5: 1; 6: 1.04

Lab note: each compound below needs its normalised indicator fluorescence filled in.
1. Cc1c(C)c2c(c(C)c1O)CCC(C)(C(=O)O)O2 (centres undefined)
2. C[C@@H]1O[C@@H](O[C@H]2[C@H](Oc3cc(O)c4c(c3)O[C@H](c3ccc(O)cc3)CC4=O)O[C@H](CO)[C@@H](O)[C@@H]2O)[C@H](O)[C@H](O)[C@H]1O
3. CCNC(=O)c1[nH]nc(-c2cc(Cl)c(O)cc2O)c1-c1ccc(OC)cc1
4. O=c1ccc2ccc(O)c(O)c2o1
5. O=C(Nc1nc2ccc(NC(=O)C34CC5CC(CC(C5)C3)C4)cc2s1)c1ccccc1

1.03
0.96
1.01
1.01
1

---

- System: hsa-mir-191 loop
- Experimental protocol: normalised indicator fluorescence (fraction of RNA + indicator signal without compound); higher = less displacement of indicator (weaker competition)
- Applied conditions: compound concentration: 5 uM; 30 min; indicator: TO-PRO-1 0.1 uM; RNA concentration: 0.1 uM
Property: normalised indicator fluorescence
Give bare numbers.

Below: 5 compounds and their reported normalised indicator fluorescence.
- Compound: "O=C1CCc2ccccc2C1"
  normalised indicator fluorescence: 1.04
- Compound: "[I-].[K+] [Potassium iodide]"
  normalised indicator fluorescence: 1.06
- Compound: "CC(C)=CCC[C@](C)(O[C@@H]1O[C@H](CO)[C@@H](O)[C@H](O)[C@H]1O)[C@H]1CC[C@]2(C)[C@@H]1[C@H](O)C[C@@H]1[C@@]3(C)CC[C@H](O)C(C)(C)[C@@H]3[C@@H](O[C@@H]3O[C@H](CO)[C@@H](O)[C@H](O)[C@H]3O[C@@H]3OC[C@@H](O)[C@H](O)[C@H]3O)C[C@]12C [Notoginsenoside R1]"
  normalised indicator fluorescence: 1.04
- Compound: "CN1CCN(c2nc(C3=C(c4c[nH]c5ccccc45)C(=O)NC3=O)c3ccccc3n2)CC1"
  normalised indicator fluorescence: 0.995
- Compound: "Cc1oncc1C(=O)Nc1ccc(C(F)(F)F)cc1 [Leflunomide]"
  normalised indicator fluorescence: 0.986

Batch: normalised indicator fluorescence for all items listed.
1. Oc1ccc(OCc2ccccc2)cc1
2. O=c1c(O)c(-c2ccccc2)oc2cc(O)cc(O)c12
3. Cc1c(C)c2c(c(C)c1O)CC[C@@](C)(CCC[C@H](C)CCC[C@H](C)CCCC(C)C)O2
4. CC(=O)Oc1c(C)c(C)c2c(c1C)CCC(C)(CCC[C@H](C)CCC[C@H](C)CCCC(C)C)O2 (some centres undefined) [Vitamin E Acetate]

[0.997, 1.05, 1.08, 1.01]

---

- System: hsa-mir-21 loop
- Experimental protocol: normalised indicator fluorescence (fraction of RNA + indicator signal without compound); higher = less displacement of indicator (weaker competition)
- Applied conditions: compound concentration: 5 uM; 30 min; indicator: TO-PRO-3 0.5 uM; RNA concentration: 0.5 uM
Kindly state normalised indicator fluorescence for each of the entries shown.
Answers are plain numbers.

Sample records with normalised indicator fluorescence:
- Structure smiles string: "O=c1cc(-c2ccccc2)oc2cc(O)c(O)c(O)c12"
  normalised indicator fluorescence: 0.944
- Structure smiles string: "CC(C)N(CCCCOCC(=O)NS(C)(=O)=O)c1cnc(-c2ccccc2)c(-c2ccccc2)n1"
  normalised indicator fluorescence: 1.07
- Structure smiles string: "NC(=O)c1ccc(N(C(N)=O)c2c(F)cccc2F)nc1-c1ccc(F)cc1F"
  normalised indicator fluorescence: 1.02

Respectfully, I request normalised indicator fluorescence for each entry included below.
1. Oc1ccc(OCc2ccccc2)cc1
2. COC(=O)c1ccc([C@H]2c3[nH]c4ccccc4c3C[C@H](C(=O)OC)N2C(=O)CCl)cc1

1. 1.11
2. 1.02

---

- System: hsa-mir-374a loop
- Experimental protocol: normalised indicator fluorescence (fraction of RNA + indicator signal without compound); higher = less displacement of indicator (weaker competition)
- Applied conditions: compound concentration: 5 uM; 30 min; indicator: TO-PRO-3 0.5 uM; RNA concentration: 0.5 uM
What normalised indicator fluorescence was measured for each of the following?
Numbers only.

- Molecule: "CC(=O)O[C@H]1C[C@@]2(C)[C@@H](C[C@@H](O)[C@H]3[C@@]4(C)CC[C@@H](O)[C@@H](C)[C@@H]4CC[C@@]32C)/C1=C(\\CCC=C(C)C)C(=O)O [Fusidine]"
  Property: "normalised indicator fluorescence"
  Measurement: 1.21
- Molecule: "O=C1C[C@@H](c2ccc(O)cc2)Oc2cc(O)cc(O)c21 [Naringenin]"
  Property: "normalised indicator fluorescence"
  Measurement: 1.18
- Molecule: "CN1CCN(c2ccc(C(=O)Nc3n[nH]c4ccc(Cc5cc(F)cc(F)c5)cc34)c(NC3CCOCC3)c2)CC1 [Entrectinib]"
  Property: "normalised indicator fluorescence"
  Measurement: 1.56
- Molecule: "CN(NC(=O)CC(=O)NN(C)C(=S)c1ccccc1)C(=S)c1ccccc1 [Elesclomol]"
  Property: "normalised indicator fluorescence"
  Measurement: 1.18

GET /value?item= C[C@@H]1O[C@@H](O[C@@H]2[C@@H](O)[C@H](OCCc3ccc(O)c(O)c3)O[C@H](CO)[C@H]2OC(=O)/C=C/c2ccc(O)c(O)c2)[C@H](O)[C@H](O)[C@H]1O [Verbascoside] &field=normalised indicator fluorescence returns 1.14

---

- System: hsa-mir-191 loop
- Experimental protocol: normalised indicator fluorescence (fraction of RNA + indicator signal without compound); higher = less displacement of indicator (weaker competition)
- Applied conditions: compound concentration: 5 uM; 30 min; indicator: TO-PRO-3 0.5 uM; RNA concentration: 0.5 uM
Where a name gives a salt, the structure may show the parent alone.
Property: normalised indicator fluorescence

Check out these entries, answers already filled in.
- Molecule: "COc1ccc(C2CC(=O)c3c(O)cc(OC4OC(COC5OC(C)C(O)C(O)C5O)C(O)C(O)C4O)cc3O2)cc1OC (centres undefined)"
  normalised indicator fluorescence: 1.08
- Molecule: "N=C(NCCCCCCNC(=N)NC(=N)Nc1ccc(Cl)cc1)NC(=N)Nc1ccc(Cl)cc1 [Chlorhexidine hydrochloride]"
  normalised indicator fluorescence: 0.962
- Molecule: "O=C(COc1ccc(Cl)cc1)NC1CCC(NC(=O)COc2ccc(Cl)cc2)CC1 (centres undefined)"
  normalised indicator fluorescence: 1.04
- Molecule: "COc1ccc(O)cc1"
  normalised indicator fluorescence: 1.17
- Molecule: "Cc1c(F)cc(C(=O)NC2CC2)cc1-c1ccc(C(=O)NCC(C)(C)C)cn1"
  normalised indicator fluorescence: 1.02

Quick one: give me normalised indicator fluorescence for each item below, same order please.
1. Nc1ncnc2c1ncn2[C@@H]1O[C@H](CO)[C@@H](O)[C@@H]1O
2. CC(=O)CCCCn1c(=O)c2c(ncn2C)n(C)c1=O
3. CCNC(=O)c1noc(-c2cc(C(C)C)c(O)cc2O)c1-c1ccc(CN2CCOCC2)cc1
4. C[C@@H]1O[C@@H](Oc2c(-c3cc(O)c(O)c(O)c3)oc3cc(O)cc(O)c3c2=O)[C@H](O)[C@H](O)[C@H]1O
5. Oc1ccc(OC2CCCCO2)cc1 (centres undefined)
6. Fc1ccc(-c2nc3n(c2-c2ccncc2)CCS3)cc1
7. N#CC(c1ccnc(OCc2ccc(CN3CCOCC3)cc2)n1)c1nc2ccccc2s1 (centres undefined)

1. 1.07
2. 1.01
3. 1.05
4. 1.05
5. 1.06
6. 1.08
7. 0.659

Items follow; give normalised indicator fluorescence for each.
1. O=c1ccc2ccc(O)cc2o1 [7-Hydroxycoumarin]
2. Oc1ccc(OCc2ccccc2)cc1
3. NC(=O)N/N=C/c1ccc([N+](=O)[O-])o1
4. O=c1ccc2ccc(O)c(O)c2o1
5. CN(C)C[C@@H]1CCn2cc(c3ccccc32)C2=C(C(=O)NC2=O)c2cn(c3ccccc23)CCO1 [Ruboxistaurin hydrochloride]
6. Oc1cc(O)c2c(c1)O[C@H](c1ccc(O)c(O)c1)[C@@H](O)C2 [(+)-Catechin Hydrate]
7. CCNC(=O)c1[nH]nc(-c2cc(Cl)c(O)cc2O)c1-c1ccc(OC)cc1

1. 1.06
2. 1.15
3. 1.02
4. 0.873
5. 1.04
6. 1.07
7. 1.05
